Attribution: patent US8367873B2

Give measured herbicidal effect against ALOMY (Alopecurus myosuroides) for each item. Keep answers brief.
system: Alopecurus myosuroides; assay: Herbicidal post-emergence action; format: in vivo; settings: post-emergence method, 80 g/ha
Number in %, nothing else.

herbicidal effect against ALOMY (Alopecurus myosuroides) value, target or system Alopecurus myosuroides, for Cc1cc(C)c(C2=C(O)C3CC4(CC3C2=O)OCCCCO4)c(C)c1 (centres unmarked) : 80

herbicidal effect against ALOMY (Alopecurus myosuroides) value, target or system Alopecurus myosuroides, for CCc1cc(C)cc(CC)c1C1=C(OC(=O)OC)C2CC3(CC2C1=O)OCC(C)(C)CO3 (centres unmarked) : 100

herbicidal effect against ALOMY (Alopecurus myosuroides) value, target or system Alopecurus myosuroides, for CCOC1COC2(CC3C(=O)C(c4c(CC)cc(C)cc4CC)=C(OC(=O)OC)C3C2)OC1 (centres unmarked) : 100

herbicidal effect against ALOMY (Alopecurus myosuroides) value, target or system Alopecurus myosuroides, for C=C1CC2C(=O)C(c3c(C)cc(C)cc3C)=C(OC(=O)C(C)(C)C)C2C1 (centres unmarked) : 0

herbicidal effect against ALOMY (Alopecurus myosuroides) value, target or system Alopecurus myosuroides, for CCc1cc(C)cc(CC)c1C1=C(OC(=O)C(C)C)C2CC3(CC2C1=O)OCCCO3 (centres unmarked) : 100

herbicidal effect against ALOMY (Alopecurus myosuroides) value, target or system Alopecurus myosuroides, for CCc1cc(C)cc(CC)c1C1=C(OC(=O)COC)C2CC3(COC(C)(C)O3)CC2C1=O (centres unmarked) : 100

herbicidal effect against ALOMY (Alopecurus myosuroides) value, target or system Alopecurus myosuroides, for CCOC(=O)OC1=C(c2c(C)cc(C)cc2C)C(=O)C2CC3(CC12)OCC(C)CO3 (mixture of isomers) : 20

herbicidal effect against ALOMY (Alopecurus myosuroides) value, target or system Alopecurus myosuroides, for CCc1cc(C)cc(CC)c1C1=C(OC(C)=O)C2CC3(CC2C1=O)OCCCO3 (centres unmarked) : 100

herbicidal effect against ALOMY (Alopecurus myosuroides) value, target or system Alopecurus myosuroides, for CCOC(=O)OC1=C(c2c(CC)cc(C)cc2CC)C(=O)C2CC3(CC12)OCC(C)O3 (mixture of isomers) : 90

herbicidal effect against ALOMY (Alopecurus myosuroides) value, target or system Alopecurus myosuroides, for CCOC(=O)OC1=C(c2c(CC)cc(C)cc2CC)C(=O)C2CC3(CC12)OCC(OCc1ccccc1)CO3 (centres unmarked) : 100

herbicidal effect against ALOMY (Alopecurus myosuroides) value, target or system Alopecurus myosuroides, for CCOC(=O)OC1=C(c2c(C)cc(C)cc2C)C(=O)C2CC3(CC12)OCCCCO3 (racemic) : 60

herbicidal effect against ALOMY (Alopecurus myosuroides) value, target or system Alopecurus myosuroides, for COC(=O)OC1=C(c2c(C)cc(C)cc2C)C(=O)C2CC3(CC12)OCC=CCO3 (racemic) : 100

herbicidal effect against ALOMY (Alopecurus myosuroides) value, target or system Alopecurus myosuroides, for C#CCON=C1CC2C(=O)C(c3c(C)cc(C)cc3C)=C(OC(=O)OC)C2C1 (racemic) : 0

herbicidal effect against ALOMY (Alopecurus myosuroides) value, target or system Alopecurus myosuroides, for CCc1cc(C)cc(CC)c1C1=C(OC(=O)C(C)C)C2CC3(CC2C1=O)OCC(OCc1ccccc1)CO3 (centres unmarked) : 90

herbicidal effect against ALOMY (Alopecurus myosuroides) value, target or system Alopecurus myosuroides, for COc1cc(C)cc(C)c1C1=C([O-])C2CC3(CC2C1=O)OCCO3.[Na+] (centres unmarked) : 100

herbicidal effect against ALOMY (Alopecurus myosuroides) value, target or system Alopecurus myosuroides, for CCc1cc(C)cc(CC)c1C1=C(O)[C@H]2CC3(C[C@H]2C1=O)OCCO3 (relative stereo) : 100

herbicidal effect against ALOMY (Alopecurus myosuroides) value, target or system Alopecurus myosuroides, for Cc1cc(C)c(C2=C(OC(=O)C(C)(C)C)C3CC(=O)CC3C2=O)c(C)c1 (centres unmarked) : 0

herbicidal effect against ALOMY (Alopecurus myosuroides) value, target or system Alopecurus myosuroides, for CCc1cc(C)cc(CC)c1C1=C(OC(=O)OC(C)C)[C@H]2C[C@]3(COC(C)(C)O3)C[C@H]2C1=O (relative stereo) : 90

herbicidal effect against ALOMY (Alopecurus myosuroides) value, target or system Alopecurus myosuroides, for CCc1cc(C)cc(C)c1C1=C(O)C2CC3(COC(C)(C)O3)CC2C1=O (centres unmarked) : 100

herbicidal effect against ALOMY (Alopecurus myosuroides) value, target or system Alopecurus myosuroides, for CCc1cc(C)cc(C)c1C1=C(O)C2CC3(CC2C1=O)OCC=CCO3 (centres unmarked) : 100

herbicidal effect against ALOMY (Alopecurus myosuroides) value, target or system Alopecurus myosuroides, for CC(=O)OC1=C(c2c(C)cc(C)cc2C)C(=O)C2CC3(COC(C)(C)O3)CC12 (mixture of isomers) : 90

herbicidal effect against ALOMY (Alopecurus myosuroides) value, target or system Alopecurus myosuroides, for CCc1cc(C)cc(CC)c1C1=C(OC(=O)C(C)C)C2CC3(CC2C1=O)OCCS3 (mixture of isomers) : 90

herbicidal effect against ALOMY (Alopecurus myosuroides) value, target or system Alopecurus myosuroides, for CCc1cc(C)cc(CC)c1C1=C(OC(C)=O)C2CC3(CC2C1=O)OCCO3 (centres unmarked) : 100

herbicidal effect against ALOMY (Alopecurus myosuroides) value, target or system Alopecurus myosuroides, for CCc1cc(C)cc(C)c1C1=C(OC(C)=O)C2CC3(COC(C)(C)O3)CC2C1=O (centres unmarked) : 100

herbicidal effect against ALOMY (Alopecurus myosuroides) value, target or system Alopecurus myosuroides, for CCc1cc(C)cc(CC)c1C1=C(O)[C@H]2CC(=NOCC3CC3)C[C@H]2C1=O (relative stereo) : 100

herbicidal effect against ALOMY (Alopecurus myosuroides) value, target or system Alopecurus myosuroides, for CCOC(=O)OC1=C(c2c(CC)cc(C)cc2CC)C(=O)[C@@H]2CC3(C[C@H]12)OCC=CCO3 (relative stereo) : 80

herbicidal effect against ALOMY (Alopecurus myosuroides) value, target or system Alopecurus myosuroides, for CCOC(=O)OC1=C(c2c(CC)cc(C)cc2CC)C(=O)[C@@H]2CC3(C[C@H]12)OCCCO3 (relative stereo) : 90

herbicidal effect against ALOMY (Alopecurus myosuroides) value, target or system Alopecurus myosuroides, for CCc1cc(C)cc(C)c1C1=C(OC(=O)C(C)C)C2CC3(COC(C)(C)O3)CC2C1=O (centres unmarked) : 90

herbicidal effect against ALOMY (Alopecurus myosuroides) value, target or system Alopecurus myosuroides, for COc1cc(C)cc(C)c1C1=C([O-])C2CC3(CC2C1=O)OCC=CCO3.[Na+] (centres unmarked) : 100

herbicidal effect against ALOMY (Alopecurus myosuroides) value, target or system Alopecurus myosuroides, for CCc1cc(C)cc(CC)c1C1=C(OC(=O)COC)C2CC3(CC2C1=O)SCCCS3 (centres unmarked) : 90

herbicidal effect against ALOMY (Alopecurus myosuroides) value, target or system Alopecurus myosuroides, for CCc1cc(C)cc(C)c1C1=C(OC(=O)OC(C)C)C2CC3(COC(C)(C)O3)CC2C1=O (mixture of isomers) : 100

herbicidal effect against ALOMY (Alopecurus myosuroides) value, target or system Alopecurus myosuroides, for C#CCON=C1CC2C(=O)C(c3c(C)cc(C)cc3C)=C(OC(=O)C(C)C)C2C1 (centres unmarked) : 0
